System: rat hepatocytes
Assay: Hepatocyte assay for determination of metabolic stability
Format: in vitro ADME
Details: after incubation with rat hepatocytes
// Fmax (maximum possible bioavailability after oral administration, well-stirred) lookup, one value per entry
observable: Fmax (maximum possible bioavailability after oral administration, well-stirred)

compound="O=C(CC(CCn1nnc2ccc(C(F)(F)F)cc2c1=O)C(=O)O)c1noc2cc(OCc3ccccc3)ccc12 (racemic)" recorded_value=70.9%
compound="NC(=O)c1cccc(COc2ccc3oc(C(=O)CC(CCn4nnc5ccccc5c4=O)C(=O)O)cc3c2)c1 (racemic)" recorded_value=68.5%
compound="O=C(CC(CCn1nnc2ccccc2c1=O)C(=O)O)c1cc2cc(OCC3CCOCC3)ccc2o1 (racemic)" recorded_value=61.4%
compound="O=C(CC(CCn1nnc2ccccc2c1=O)C(=O)O)c1noc2cc(OCc3ccccc3)ccc12 (racemic)" recorded_value=63.7%
compound="O=C(CC(CCn1nnc2ccccc2c1=O)C(=O)O)c1cc2ccc(OCCc3ccccc3)cc2o1 (racemic)" recorded_value=66.9%
compound="O=C(CC(CCn1nnc2ccccc2c1=O)C(=O)O)c1coc2cc(OCc3ccc(Cl)c(Cl)c3)ccc12 (single isomer, unassigned)" recorded_value=63.2%
compound="CCCCCOc1ccc2cc(C(=O)CC(CCn3nnc4ccccc4c3=O)C(=O)O)oc2c1 (single isomer, unassigned; (+))" recorded_value=48.9%
compound="O=C(CC(CCn1nnc2ccccc2c1=O)C(=O)O)c1cc2ccc(OCC3CC3)cc2s1 (single isomer, unassigned; (+))" recorded_value=52.5%

###

pIC50: −log10 of the molar value.
Values of pIC50 reported for UniProtKB P14780 appear below.
observable: pIC50

compound="O=C(CC(CCn1nnc2ccc(C(F)(F)F)cc2c1=O)C(=O)O)c1noc2cc(OCc3ccccc3)ccc12 (racemic) [Example 154]" recorded_value=6.60
compound="CCCCCCCOc1ccc2c(C(=O)CC(CCn3nnc4ccccc4c3=O)C(=O)O)coc2c1 (racemic) [Example 101]" recorded_value=6.38
compound="CCCCCOc1ccc2c(C(=O)CC(CCn3nnc4ccccc4c3=O)C(=O)O)coc2c1 (racemic) [Example 89]" recorded_value=6.64

###

Target: human macrophage elastase (HME/hMMP-12) (Homo sapiens)
Sequence (P39900 106-470): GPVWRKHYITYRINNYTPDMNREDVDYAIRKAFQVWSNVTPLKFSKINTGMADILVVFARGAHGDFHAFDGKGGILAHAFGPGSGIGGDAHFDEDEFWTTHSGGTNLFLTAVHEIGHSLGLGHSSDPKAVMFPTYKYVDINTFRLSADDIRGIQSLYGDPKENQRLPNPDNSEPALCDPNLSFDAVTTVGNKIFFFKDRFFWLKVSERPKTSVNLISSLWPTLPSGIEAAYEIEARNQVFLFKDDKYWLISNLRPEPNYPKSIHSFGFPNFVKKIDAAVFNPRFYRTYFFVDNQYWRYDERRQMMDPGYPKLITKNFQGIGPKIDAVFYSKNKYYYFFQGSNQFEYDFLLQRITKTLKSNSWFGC
Assay: In vitro HME inhibition test (standard or high-sensitivity)
Conditions: in some cases mean values, rounded to two significant figures
observable: log10 IC50 (log10 of the value in nM)

compound="O=C(CC(CCn1nnc2ccccc2c1=O)C(=O)O)c1coc2cc(OCc3ccc(Cl)c(Cl)c3)ccc12 (single isomer, unassigned) [Example 93]" target_or_test_system="human macrophage elastase (HME/hMMP-12) (Homo sapiens)" recorded_value=1.99
compound="O=C(CC(CCn1nnc2ccccc2c1=O)C(=O)O)c1cc2ccc(OCC3CCO3)cc2s1 (racemic)" target_or_test_system="human macrophage elastase (HME/hMMP-12) (Homo sapiens)" recorded_value=0.57
compound="NC(=O)c1cccc(COc2ccc3oc(C(=O)CC(CCn4nnc5ccccc5c4=O)C(=O)O)cc3c2)c1 (racemic) [Example 32]" target_or_test_system="human macrophage elastase (HME/hMMP-12) (Homo sapiens)" recorded_value=-0.17
compound="CCCCCOc1ccc2cc(C(=O)CC(CCn3nnc4ccccc4c3=O)C(=O)O)oc2c1 (single isomer, unassigned; (+)) [Example 57]" target_or_test_system="human macrophage elastase (HME/hMMP-12) (Homo sapiens)" recorded_value=0.32
compound="O=C(CC(CCn1nnc2ccccc2c1=O)C(=O)O)c1coc2cc(OCC3CCOCC3)ccc12 (single isomer, unassigned; (-)) [Example 97]" target_or_test_system="human macrophage elastase (HME/hMMP-12) (Homo sapiens)" recorded_value=1.40
compound="O=C(CC(CCn1nnc2ccccc2c1=O)C(=O)O)c1cc2cc(OCc3ccc(F)cc3)ccc2o1 (single isomer, unassigned; (+)) [Example 23]" target_or_test_system="human macrophage elastase (HME/hMMP-12) (Homo sapiens)" recorded_value=-0.09
compound="O=C(CC(CCn1nnc2ccccc2c1=O)C(=O)O)c1coc2cc(OCCC3CCCCC3)ccc12 (racemic)" target_or_test_system="human macrophage elastase (HME/hMMP-12) (Homo sapiens)" recorded_value=-0.18
compound="O=C(CC(CCn1nnc2ccccc2c1=O)C(=O)O)c1cc2cc(OCc3ccc(Cl)c(Cl)c3)ccc2o1 (single isomer, unassigned; (-)) [Example 26]" target_or_test_system="human macrophage elastase (HME/hMMP-12) (Homo sapiens)" recorded_value=2.20
compound="CCCOc1ccc2cc(C(=O)CC(CCn3nnc4ccccc4c3=O)C(=O)O)sc2c1 (racemic)" target_or_test_system="human macrophage elastase (HME/hMMP-12) (Homo sapiens)" recorded_value=0.62
compound="O=C(CC(CCn1nnc2ccccc2c1=O)C(=O)O)c1cc2cc(OCc3ccc(F)cc3F)ccc2o1 (racemic)" target_or_test_system="human macrophage elastase (HME/hMMP-12) (Homo sapiens)" recorded_value=0.32

###

Biological target: human macrophage elastase (HME/hMMP-12) (Homo sapiens)
Assay: In vitro HME inhibition test (standard or high-sensitivity)
Details: in some cases mean values, rounded to two significant figures
observable: IC50 (nM)

compound="O=C(CC(CCn1nnc2ccccc2c1=O)C(=O)O)c1cc2ccc(OCC3CCCO3)cc2s1 (racemic)" target_or_test_system="human macrophage elastase (HME/hMMP-12) (Homo sapiens)" observable=IC50 unit_descriptor=nM recorded_value=5.9
compound="CCCOc1ccc2cc(C(=O)CC(CCn3nnc4ccc(C(F)(F)F)cc4c3=O)C(=O)O)sc2c1 (racemic)" target_or_test_system="human macrophage elastase (HME/hMMP-12) (Homo sapiens)" observable=IC50 unit_descriptor=nM recorded_value=0.51
compound="O=C(CC(CCn1nnc2ccccc2c1=O)C(=O)O)c1cc2ccc(OCCCC(F)(F)F)cc2s1 (racemic)" target_or_test_system="human macrophage elastase (HME/hMMP-12) (Homo sapiens)" observable=IC50 unit_descriptor=nM recorded_value=3.6
compound="O=C(CC(CCn1nnc2ccccc2c1=O)C(=O)O)c1coc2cc(OCc3ccc(Cl)c(Cl)c3)ccc12 (racemic) [Example 92]" target_or_test_system="human macrophage elastase (HME/hMMP-12) (Homo sapiens)" observable=IC50 unit_descriptor=nM recorded_value=1.3
compound="O=C(CC(CCn1nnc2ccccc2c1=O)C(=O)O)c1cc2cc(OCCc3ccccc3)ccc2o1 (racemic) [Example 19]" target_or_test_system="human macrophage elastase (HME/hMMP-12) (Homo sapiens)" observable=IC50 unit_descriptor=nM recorded_value=4.7
compound="CCCCCOc1ccc2cc(C(=O)CC(CCn3nnc4ccccc4c3=O)C(=O)O)oc2c1 (single isomer, unassigned; (-)) [Example 56]" target_or_test_system="human macrophage elastase (HME/hMMP-12) (Homo sapiens)" observable=IC50 unit_descriptor=nM recorded_value=1400
compound="CCCCCCCOc1ccc2c(C(=O)CC(CCn3nnc4ccccc4c3=O)C(=O)O)coc2c1 (single isomer, unassigned; (+)) [Example 103]" target_or_test_system="human macrophage elastase (HME/hMMP-12) (Homo sapiens)" observable=IC50 unit_descriptor=nM recorded_value=0.23
compound="O=C(CC(CCn1nnc2ccccc2c1=O)C(=O)O)c1cc2cc(OCc3cccc(F)c3)ccc2o1 (racemic)" target_or_test_system="human macrophage elastase (HME/hMMP-12) (Homo sapiens)" observable=IC50 unit_descriptor=nM recorded_value=1.3
compound="NC(=O)c1cccc(COc2ccc3oc(C(=O)CC(CCn4nnc5ccccc5c4=O)C(=O)O)cc3c2)c1 (single isomer, unassigned; (+)) [Example 34]" target_or_test_system="human macrophage elastase (HME/hMMP-12) (Homo sapiens)" observable=IC50 unit_descriptor=nM recorded_value=1.1

###

pIC50: −log10 of the molar value.
Quick note: these are pIC50 numbers for system: MMP-9 (Homo sapiens, UniProt P14780)
Sequence (P14780 107-707 limits assumed): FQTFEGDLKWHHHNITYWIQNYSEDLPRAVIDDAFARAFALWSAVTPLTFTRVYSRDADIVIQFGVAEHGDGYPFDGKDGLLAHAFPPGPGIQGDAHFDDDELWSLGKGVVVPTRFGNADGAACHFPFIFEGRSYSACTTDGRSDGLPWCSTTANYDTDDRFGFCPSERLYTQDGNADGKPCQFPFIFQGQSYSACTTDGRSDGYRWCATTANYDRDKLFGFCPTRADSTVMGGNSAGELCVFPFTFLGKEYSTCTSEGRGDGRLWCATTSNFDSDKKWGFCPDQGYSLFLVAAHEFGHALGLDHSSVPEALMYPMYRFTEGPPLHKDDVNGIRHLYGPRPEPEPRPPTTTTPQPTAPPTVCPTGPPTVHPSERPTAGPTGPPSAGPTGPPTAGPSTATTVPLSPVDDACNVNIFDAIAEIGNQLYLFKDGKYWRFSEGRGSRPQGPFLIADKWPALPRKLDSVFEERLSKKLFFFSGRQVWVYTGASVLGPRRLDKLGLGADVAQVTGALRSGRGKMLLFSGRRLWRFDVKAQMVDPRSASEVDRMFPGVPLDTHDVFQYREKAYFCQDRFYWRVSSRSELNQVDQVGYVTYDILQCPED
observable: pIC50

compound="O=C(CC(CCn1nnc2ccccc2c1=O)C(=O)O)c1coc2cc(OCC3CCCCC3)ccc12 (single isomer, unassigned; (+)) [Example 82]" recorded_value=7.03
compound="O=C(CC(CCn1nnc2ccccc2c1=O)C(=O)O)c1cc2ccc(OCCc3ccccc3)cc2s1 (racemic) [Example 114]" recorded_value=6.62
compound="O=C(CC(CCn1nnc2ccccc2c1=O)C(=O)O)c1noc2cc(OCC3CC3)ccc12 (racemic) [Example 150]" recorded_value=6.19
compound="O=C(CC(CCn1nnc2ccccc2c1=O)C(=O)O)c1cc2cc(OCC3CCCCC3)ccc2o1 (racemic) [Example 8]" recorded_value=4.89
compound="O=C(CC(CCn1nnc2ccccc2c1=O)C(=O)O)c1cc2cc(OCc3ccc(C(F)(F)F)cc3)ccc2o1 (racemic) [Example 44]" recorded_value=5.00

###

Target: human macrophage elastase (HME/hMMP-12) (Homo sapiens)
Assay: In vitro HME inhibition test (standard or high-sensitivity)
Conditions: in some cases mean values, rounded to two significant figures
pIC50: −log10 of the molar value.
Quick reference for pIC50 among some compounds
observable: pIC50

compound="O=C(C[C@@H](CCn1nnc2ccccc2c1=O)C(=O)O)c1noc2cc(OCC3CCOCC3)ccc12 (single isomer, unassigned; enantiomer 1) [Example 134]" recorded_value=7.62
compound="O=C(CC(CCn1nnc2ccccc2c1=O)C(=O)O)c1cc2cc(OCC3(F)CCOCC3)ccc2o1 (racemic) [Example 14]" recorded_value=9.19
compound="O=C(CC(CCn1nnc2ccccc2c1=O)C(=O)O)c1cc2cc(OCC3CCOCC3)ccc2o1 (racemic) [Example 5]" recorded_value=8.68
compound="O=C(CC(CCn1nnc2ccc(C(F)(F)F)cc2c1=O)C(=O)O)c1cc2ccc(OCC3CC3)cc2s1 (single isomer, unassigned; enantiomer 1) [Example 129]" recorded_value=7.89
compound="O=C(CC(CCn1nnc2ccccc2c1=O)C(=O)O)c1cc2ccc(OCCC3CCOCC3)cc2o1 (racemic) [Example 54]" recorded_value=8.25
compound="O=C(CC(CCn1nnc2ccccc2c1=O)C(=O)O)c1coc2cc(OCC3CCOCC3)ccc12 (racemic) [Example 95]" recorded_value=9.22
compound="O=C(CC(CCn1nnc2ccccc2c1=O)C(=O)O)c1coc2cc(OCc3cccc(Cl)c3)ccc12 (racemic) [Example 77]" recorded_value=8.54
